Target: Melanocortin receptor 4 (Mus musculus, UniProt P56450)
Sequence (P56450 whole entry): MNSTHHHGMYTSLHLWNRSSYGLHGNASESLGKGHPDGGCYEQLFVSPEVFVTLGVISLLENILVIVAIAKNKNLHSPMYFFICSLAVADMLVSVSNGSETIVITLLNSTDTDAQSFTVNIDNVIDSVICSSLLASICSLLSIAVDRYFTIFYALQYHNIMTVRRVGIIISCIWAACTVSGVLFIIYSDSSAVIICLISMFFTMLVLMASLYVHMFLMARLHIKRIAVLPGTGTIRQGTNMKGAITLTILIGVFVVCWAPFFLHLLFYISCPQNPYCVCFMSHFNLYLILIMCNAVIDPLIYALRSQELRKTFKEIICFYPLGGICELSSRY
Assay: Agonist activity on mouse melanocortin 4 receptor (mMC4R) stably expressed in […] cells
Each entry below lists one item and its recorded EC50 value.
Quick reminder: number only, in µM, skip the unit.

**Query** May I ask what EC50 has been recorded for `NCCCCNC(=O)[C@H](Cc1c[nH]c2ccccc12)NC(=O)NC1CCN(Cc2ccccc2)CC1` ?
**Result** 2.8

**Query** May I ask what EC50 has been recorded for `NCCCCNC(=O)[C@H](Cc1c[nH]c2ccccc12)NC(=O)NN1CCc2ccccc2C1` ?
**Result** 3.4

**Query** May I ask what EC50 has been recorded for `NCCCCNC(=O)[C@@H](Cc1c[nH]c2ccccc12)NC(=O)NCc1ccccc1` ?
**Result** 23.7
